# Target or test system: T1, TNPO1 (TEV-cleaved) (UniProt Q92973 1-898)
# T1 sequence (looked up): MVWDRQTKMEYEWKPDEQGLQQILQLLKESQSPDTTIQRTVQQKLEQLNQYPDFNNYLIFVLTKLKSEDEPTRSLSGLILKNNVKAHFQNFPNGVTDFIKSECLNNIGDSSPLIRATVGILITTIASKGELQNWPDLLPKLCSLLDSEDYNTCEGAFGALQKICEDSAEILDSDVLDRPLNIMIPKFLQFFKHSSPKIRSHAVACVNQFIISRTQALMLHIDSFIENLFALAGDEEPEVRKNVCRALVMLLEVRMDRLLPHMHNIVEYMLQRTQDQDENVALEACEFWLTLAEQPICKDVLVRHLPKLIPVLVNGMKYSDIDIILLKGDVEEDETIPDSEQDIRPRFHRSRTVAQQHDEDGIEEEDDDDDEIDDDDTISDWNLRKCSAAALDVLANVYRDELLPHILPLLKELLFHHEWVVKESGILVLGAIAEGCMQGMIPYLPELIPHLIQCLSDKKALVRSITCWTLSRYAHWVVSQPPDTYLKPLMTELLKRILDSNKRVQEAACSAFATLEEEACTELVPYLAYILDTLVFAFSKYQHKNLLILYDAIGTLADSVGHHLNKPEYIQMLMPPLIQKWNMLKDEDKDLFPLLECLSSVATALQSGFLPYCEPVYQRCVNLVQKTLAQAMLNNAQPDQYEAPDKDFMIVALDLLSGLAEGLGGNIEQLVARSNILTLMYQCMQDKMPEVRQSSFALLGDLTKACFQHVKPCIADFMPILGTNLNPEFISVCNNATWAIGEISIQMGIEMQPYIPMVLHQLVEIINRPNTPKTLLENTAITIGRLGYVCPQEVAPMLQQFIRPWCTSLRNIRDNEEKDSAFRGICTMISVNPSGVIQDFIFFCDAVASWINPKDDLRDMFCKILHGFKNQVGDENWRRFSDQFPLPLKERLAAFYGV
# Experimental protocol: fluorescence polarisation
pKd: −log10 of the molar value. Primed or numbered codes have the meaning given here. Ends that are not written are not given here. FITC′ = fluorescein isothiocyanate
Readout kind: pKd

Ask | Please report the recorded pKd for {FITC′}-GRGRGRGRGRGRGRGRGRGRGRGRGRGRGRGRGRGRGRGRGRGRGRGRGR [FITC-GR25] .
Reply | ~6.70

Ask | Please report the recorded pKd for {FITC′}-PRPRPRPRPRPRPRPRPRPRPRPRPRPRPRPRPRPRPRPRPRPRPRPRPR [FITC-PR25] .
Reply | ~6.70
